test system: PC-3 (prostate cancer); experiment: MTT growth inhibition of human solid tumor cells, 72 h; type: cell-based; details: Homo sapiens; PC-3, 72 h; read-out: IC50
MEASURED_PARAMETER: IC50 (µg/mL)

Guide cases for IC50, answers given:
MOLECULE | VAL
Cc1c(CN(C)CCO)oc2c1C(=O)C(=O)c1c-2ccc2c(C)cccc12 [BS-TA-B17] | 0.63
CCN(C)Cc1oc2c(c1C)C(=O)C(=O)c1c-2ccc2c(C)cccc12 [BS-TA-B03] | 5.39

[P] Cc1c(CN(C)CCOC(=O)CCC(=O)O)oc2c1C(=O)C(=O)c1c-2ccc2c(C)cccc12 [BS-TA-73]
[Q] Cc1c(CN(C)CCOC(=O)OC(C)C)oc2c1C(=O)C(=O)c1c-2ccc2c(C)cccc12 [BS-TA-63]
Which numeric IC50 is bigger, that of P or that of Q ? Reply with the label of the item you choose. Q

[1] CC[N+](C)(Cc1ccc(F)c(Cl)c1)Cc1oc2c(c1C)C(=O)C(=O)c1c-2ccc2c(C)cccc12 (centres unmarked) [BS-TA-50]
[2] Cc1c(C[N+](C)(CCO)Cc2ccc(F)c(Cl)c2)oc2c1C(=O)C(=O)c1c-2ccc2c(C)cccc12 (centres unmarked) [BS-TA-60]
Hey, which is lower on measured IC50, 1 or 2 ? Reply with the label of the item you choose. 2
(2: 5.03 µg/mL, 1: 10.7 µg/mL)

[A] Cc1c(CN(C)CCOC(=O)C2CCNCC2)oc2c1C(=O)C(=O)c1c-2ccc2c(C)cccc12 [BS-TA-64]
[B] C#CCNCc1oc2c(c1C)C(=O)C(=O)c1c-2ccc2c(C)cccc12 [BS-TA-B21]
Which numeric IC50 is bigger, that of A or that of B ? Reply with the label of the item you choose. B

====

tested on: MG63 (osteosarcoma); test: MTT growth inhibition of human solid tumor cells, 72 h; assay type: cell-based; conditions: Homo sapiens, MG-63, 72 h; read-out: IC90
MEASURED_PARAMETER: IC90 (µg/mL)

COMPOUND | VAL
CC(=O)OCCN(C)Cc1oc2c(c1C)C(=O)C(=O)c1c-2ccc2c(C)cccc12 | 6.79
Cc1c(C[N+](C)(CCO)Cc2ccc(F)c(Cl)c2)oc2c1C(=O)C(=O)c1c-2ccc2c(C)cccc12 (centres unmarked) | 5.23
Cc1c(CN(C)CCOC(=O)C2CCNCC2)oc2c1C(=O)C(=O)c1c-2ccc2c(C)cccc12 | 2.16
Cc1c(CN(C)Cc2ccccc2)oc2c1C(=O)C(=O)c1c-2ccc2c(C)cccc12 | 14.9
Cc1c(CN(C)CCOC(=O)[C@@H](N)C(C)C)oc2c1C(=O)C(=O)c1c-2ccc2c(C)cccc12 | 1.79

[A] Cc1c(CN(C)CCO)oc2c1C(=O)C(=O)c1c-2ccc2c(C)cccc12
[B] Cc1c(CNCCO)oc2c1C(=O)C(=O)c1c-2ccc2c(C)cccc12
[C] CCN(C)Cc1oc2c(c1C)C(=O)C(=O)c1c-2ccc2c(C)cccc12
[D] COC(=O)/C=C/C(=O)OCCN(C)Cc1oc2c(c1C)C(=O)C(=O)c1c-2ccc2c(C)cccc12
[E] Cc1c(CN2CCCN(C)CC2)oc2c1C(=O)C(=O)c1c-2ccc2c(C)cccc12
Exam item: list the entries in increasing order of IC90. Your reply should list the labels following the order given in the request. B, A, D, E, C
(B: 0.98 µg/mL, A: 1.76 µg/mL, D: 3.26 µg/mL, E: 5.49 µg/mL, C: 13 µg/mL)

====

test system: Becap37 (human breast cancer cell); experiment: MTT growth inhibition of human solid tumor cells, 72 h; assay type: cell-based; settings: Homo sapiens; Becap-37, 72 h; read-out: IC50
MEASURED_PARAMETER: IC50 (µg/mL)

Guide cases for IC50, answers given:
COMPOUND | TARGET_DESC | IC50 (µg/mL)
Cc1c(CN(C)CCOC(=O)[C@@H](N)C(C)C)oc2c1C(=O)C(=O)c1c-2ccc2c(C)cccc12 | Becap37 (human breast cancer cell) | 0.4
Cc1c(CNCC2CC2)oc2c1C(=O)C(=O)c1c-2ccc2c(C)cccc12 | Becap37 (human breast cancer cell) | 5.23
CC(=O)OCCN(C)Cc1oc2c(c1C)C(=O)C(=O)c1c-2ccc2c(C)cccc12 | Becap37 (human breast cancer cell) | 2.54
Cc1c(CN(C)CCOC(=O)CCC(=O)O)oc2c1C(=O)C(=O)c1c-2ccc2c(C)cccc12 | Becap37 (human breast cancer cell) | 1.06

[1] C#CCNCc1oc2c(c1C)C(=O)C(=O)c1c-2ccc2c(C)cccc12
[2] CCC(=O)OCc1oc2c(c1C)C(=O)C(=O)c1c-2ccc2c(C)cccc12
Hey, which is lower on measured IC50, 1 or 2 ? Reply with the label of the item you choose. 1

[1] Cc1c(CNCC2CCCCC2)oc2c1C(=O)C(=O)c1c-2ccc2c(C)cccc12
[2] Cc1c(CN(C)CCOC(=O)OC(C)C)oc2c1C(=O)C(=O)c1c-2ccc2c(C)cccc12
[3] Cc1c(CN(C)CCOC(=O)C2CCNCC2)oc2c1C(=O)C(=O)c1c-2ccc2c(C)cccc12
[4] CCN(C)Cc1oc2c(c1C)C(=O)C(=O)c1c-2ccc2c(C)cccc12
Exam item: list the entries in increasing order of IC50. Your reply should list the labels following the order given in the request. 3, 4, 1, 2

[P] CC[N+](C)(Cc1ccc(F)c(Cl)c1)Cc1oc2c(c1C)C(=O)C(=O)c1c-2ccc2c(C)cccc12 (stereo not shown)
[Q] Cc1c(COC(=O)c2ccnc(Cl)c2)oc2c1C(=O)C(=O)c1c-2ccc2c(C)cccc12
Hey, which is lower on measured IC50, P or Q ? Reply with the label of the item you choose. Q
(Q: 4.74 µg/mL, P: 8.1 µg/mL)

[P] COC(=O)/C=C/C(=O)OCCN(C)Cc1oc2c(c1C)C(=O)C(=O)c1c-2ccc2c(C)cccc12
[Q] Cc1c(CNCCC(C)(C)C)oc2c1C(=O)C(=O)c1c-2ccc2c(C)cccc12
[R] Cc1c(C[N+](C)(CCO)Cc2ccc(F)c(Cl)c2)oc2c1C(=O)C(=O)c1c-2ccc2c(C)cccc12 (stereo not shown)
Exam item: list the entries in increasing order of IC50. Your reply should list the labels following the order given in the request. P, R, Q
(P: 0.85 µg/mL, R: 1.88 µg/mL, Q: 4.6 µg/mL)

====

System: Hep-2 (laryngeal carcinoma)
Experiment: MTT growth inhibition of human solid tumor cells, 72 h
Type: cell-based
Details: Homo sapiens, HEp-2, 72 h; read-out: IC90
Protocol: […] Obtaining 4000 well-growing human solid tumor cells and inoculating them into wells of a 96-well cell culture plate. […] Then the viable cell concentration is determined by the MTT method.
MEASURED_PARAMETER: IC90 (µg/mL)

[1] Cc1c(CNCCC(C)(C)C)oc2c1C(=O)C(=O)c1c-2ccc2c(C)cccc12
[2] Cc1c(CN(C)CCOC(=O)CCC(=O)O)oc2c1C(=O)C(=O)c1c-2ccc2c(C)cccc12
Hey, which is lower on measured IC90, 1 or 2 ? Reply with the label of the item you choose. 2
(2: 3.21 µg/mL, 1: 35.2 µg/mL)

[P] COC(=O)/C=C/C(=O)OCCN(C)Cc1oc2c(c1C)C(=O)C(=O)c1c-2ccc2c(C)cccc12
[Q] C#CCNCc1oc2c(c1C)C(=O)C(=O)c1c-2ccc2c(C)cccc12
Hey, which is lower on measured IC90, P or Q ? Reply with the label of the item you choose. P
(P: 3.67 µg/mL, Q: 23.7 µg/mL)

[P] Cc1c(CN(C)Cc2ccccc2)oc2c1C(=O)C(=O)c1c-2ccc2c(C)cccc12
[Q] Cc1c(COC(=O)c2ccnc(Cl)c2)oc2c1C(=O)C(=O)c1c-2ccc2c(C)cccc12
Hey, which is lower on measured IC90, P or Q ? Reply with the label of the item you choose. Q
(Q: 19.1 µg/mL, P: 29.6 µg/mL)

====

test system: K562/adr (drug-resistant, chronic myeloid leukemia, CML); assay: MTT growth inhibition of leukemia cells, 72 h; assay type: cell-based, human; conditions: Homo sapiens, K562/Adr, read-out: IC50
MEASURED_PARAMETER: IC50 (µg/mL)

Guide cases for IC50, answers given:
COMPOUND | TARGET_DESC | UNITS_SYMBOL | VAL
Cc1c(CNCC2CCCCC2)oc2c1C(=O)C(=O)c1c-2ccc2c(C)cccc12 | K562/adr (drug-resistant, chronic myeloid leukemia, CML) | µg/mL | 0.81
Cc1c(CN(C)CCOC(=O)OC(C)C)oc2c1C(=O)C(=O)c1c-2ccc2c(C)cccc12 | K562/adr (drug-resistant, chronic myeloid leukemia, CML) | µg/mL | 1.26
Cc1c(CN(C)CCOC(=O)C2CCNCC2)oc2c1C(=O)C(=O)c1c-2ccc2c(C)cccc12 | K562/adr (drug-resistant, chronic myeloid leukemia, CML) | µg/mL | 0.84
Cc1c(CN(C)CCOC(=O)[C@@H](N)C(C)C)oc2c1C(=O)C(=O)c1c-2ccc2c(C)cccc12 | K562/adr (drug-resistant, chronic myeloid leukemia, CML) | µg/mL | 0.47
Cc1c(CNCCC(C)(C)C)oc2c1C(=O)C(=O)c1c-2ccc2c(C)cccc12 | K562/adr (drug-resistant, chronic myeloid leukemia, CML) | µg/mL | 0.77
Cc1c(CNCC2CC2)oc2c1C(=O)C(=O)c1c-2ccc2c(C)cccc12 | K562/adr (drug-resistant, chronic myeloid leukemia, CML) | µg/mL | 3.22

[I] COC(=O)/C=C/C(=O)OCCN(C)Cc1oc2c(c1C)C(=O)C(=O)c1c-2ccc2c(C)cccc12
[II] Cc1c(CN2CCCN(C)CC2)oc2c1C(=O)C(=O)c1c-2ccc2c(C)cccc12
[III] CC[N+](C)(Cc1ccc(F)c(Cl)c1)Cc1oc2c(c1C)C(=O)C(=O)c1c-2ccc2c(C)cccc12 (centres unmarked)
[IV] CCC(=O)OCc1oc2c(c1C)C(=O)C(=O)c1c-2ccc2c(C)cccc12
Exam item: list the entries in increasing order of IC50. Your reply should list the labels following the order given in the request. I, II, IV, III
(I: 0.8 µg/mL, II: 1.5 µg/mL, IV: 2.3 µg/mL, III: 11.2 µg/mL)

[1] CC(=O)OCCN(C)Cc1oc2c(c1C)C(=O)C(=O)c1c-2ccc2c(C)cccc12
[2] Cc1c(CN(C)Cc2ccccc2)oc2c1C(=O)C(=O)c1c-2ccc2c(C)cccc12
[3] Cc1c(CNCCO)oc2c1C(=O)C(=O)c1c-2ccc2c(C)cccc12
Exam item: list the entries in increasing order of IC50. Your reply should list the labels following the order given in the request. 3, 1, 2
